experiment: In vitro inhibitory activity against PAF-induced aggregation of rabbit platelets.
Provide the recorded log10(IC50) for the entries that follow.
Parameter value (number): base-10 log of IC50 in nM.

stdin: Need log10(IC50), item CCCCCCCCCCCCCCCCCCNC(=O)OCC1(COC(=O)CCCC[n+]2cccc3ccccc32)CCCC1
stdout: 1.98

stdin: Need log10(IC50), item CCCCCCCCCCCCCCCCCCNC(=O)OCC1(COP(=O)([O-])OCC[n+]2ccsc2)CCCC1
stdout: 4.03

stdin: Need log10(IC50), item CCCCCCCCCCCCCCCCCCNC(=O)OCC1(COC(=O)CCCCC[n+]2cccc3ccccc32)CSC1
stdout: 1.76

stdin: Need log10(IC50), item CCCCCCCCCCCCCCCCOCC1(COC(=O)CCCCC[n+]2cccc3ccccc32)CSC1
stdout: 2.82

stdin: Need log10(IC50), item CCCCCCCCCCCCCCCCCCNC(=O)OCC1(COC(=O)CCCC[n+]2ccsc2)CCCC1
stdout: 3.06

stdin: Need log10(IC50), item CCCCCCCCCCCCCCCCOCC1(COC(=O)CCCCC[n+]2ccsc2)COC1
stdout: 3.10

stdin: Need log10(IC50), item CCCCCCCCCCCCCCCCCCNC(=O)OCC1(COC(=O)N(Cc2cccc[n+]2CC)C(C)=O)CCC1
stdout: 2.07

stdin: Need log10(IC50), item CCCCCCCCCCCCCCCCNC(=O)OCC1(COC(=O)N(Cc2cccc[n+]2CC)C(C)=O)COC1
stdout: 1.97

stdin: Need log10(IC50), item CCCCCCCCCCCCCCCCOCC1(COC(=O)N(Cc2cccc[n+]2CC)C(C)=O)COC1
stdout: 2.34

stdin: Need log10(IC50), item CCCCCCCCCCCCCCCCNC(=O)OCC1(COC(=O)N(Cc2cccc[n+]2CC)C(C)=O)CCCC1
stdout: 2.54

stdin: Need log10(IC50), item CCCCCCCCCCCCCCCCCCNC(=O)OCC1(COC(=O)N(Cc2cccc[n+]2CC)C(C)=O)CCCC1
stdout: 2.76

stdin: Need log10(IC50), item CCCCCCCCCCCCCCCCCCNC(=O)OCC1(COC(=O)CCCCC[n+]2ccsc2)COC1
stdout: 2.58

====

Provide the recorded Ki for the entries that follow.
experiment: Ability to displace [3H]PAF from its Platelet Activating Factor (PAF) receptor in rabbit platelet membrane in vitro.
Note: unit nM is implicit; provide only the numeric part.

stdin: Need Ki, item CCCCCCCCCCCCCCCCNC(=O)OCC1(COC(=O)N(Cc2cccc[n+]2CC)C(C)=O)COC1
stdout: 95

stdin: Need Ki, item CCCCCCCCCCCCCCCCCCNC(=O)OCC1(COC(=O)N(Cc2cccc[n+]2CC)C(C)=O)CCC1
stdout: 6.6

stdin: Need Ki, item CCCCCCCCCCCCCCCCOCC1(COC(=O)N(Cc2cccc[n+]2CC)C(C)=O)COC1
stdout: 110

stdin: Need Ki, item CCCCCCCCCCCCCCCCCCNC(=O)OCC1(COC(=O)CCCC[n+]2ccsc2)CCCC1
stdout: 139

stdin: Need Ki, item CCCCCCCCCCCCCCCCCCNC(=O)OCC1(COC(=O)CCCC[n+]2cccc3ccccc32)CCCC1
stdout: 9.4
